Quick reference for pIC50 among some compounds
target: UniProtKB Q86SK9; assay: Yeast growth assay, strain expressing human SCD5 as the sole desaturase (reduced growth as surrogate for SCD inhibition); details: yeast with OLE1 deleted expressing human SCD5 from a plasmid; growth read as OD600 after 40 h at 30° C.; top drug concentration 33.3 μM
Sequence (Q86SK9 whole entry): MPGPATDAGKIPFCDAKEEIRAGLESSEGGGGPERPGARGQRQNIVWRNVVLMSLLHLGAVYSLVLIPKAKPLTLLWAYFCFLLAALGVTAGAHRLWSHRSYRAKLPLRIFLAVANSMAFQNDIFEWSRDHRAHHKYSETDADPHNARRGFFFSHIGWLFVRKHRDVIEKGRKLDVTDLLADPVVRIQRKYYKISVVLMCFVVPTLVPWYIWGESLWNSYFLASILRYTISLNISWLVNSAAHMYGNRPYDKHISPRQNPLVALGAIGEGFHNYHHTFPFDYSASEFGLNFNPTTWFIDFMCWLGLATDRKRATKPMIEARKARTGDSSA
pIC50: −log10 of the molar value.

Sample answers from the record:
compound="NC(=O)c1cc(C(=O)N2CCC(c3ccccc3)C2)no1 (stereo not drawn)" experimental_value="< 4.35"
compound="O=C(NC1CCNC1)c1cc(-c2ccco2)on1 (stereo not drawn)" experimental_value="< 4.35"
compound=CC(=O)N1CCN(c2cc(C(=O)Nc3cnn(Cc4ccccc4)c3)no2)CC1 experimental_value="< 4.35"
compound=O=C(c1cc(-c2ccc3c(c2)OCO3)on1)N1C[C@@H](O)C[C@H]1c1ccccc1 experimental_value="< 4.35"
compound=O=C(Nc1cnn(Cc2cccc(F)c2)c1)c1cc(-c2ccccn2)on1 experimental_value="< 4.35"

What value of pIC50 has been recorded for this entry: O=C(c1cc(-c2ccc3c(c2)OCO3)on1)N1Cc2ccccc2C1
< 4.35

What value of pIC50 has been recorded for this entry: O=C(c1cc(-c2ccco2)on1)N1CC(Nc2ccccc2)C1
< 4.35

What value of pIC50 has been recorded for this entry: COc1ccc(-c2cc(C(=O)N3CC(c4ccccc4)C3)no2)nn1
5.74

What value of pIC50 has been recorded for this entry: O=C(Nc1cnn(Cc2cccc(F)c2)c1)c1cc(CO)on1
< 4.35
